Data provenance is patent US20210246166A1.

Target: T1, Recombinant human MASP1 enzyme (fragment corresponding to amino acids 297-699, C-terminal His Tag) (human, UniProt P48740 297-699)
T1 sequence: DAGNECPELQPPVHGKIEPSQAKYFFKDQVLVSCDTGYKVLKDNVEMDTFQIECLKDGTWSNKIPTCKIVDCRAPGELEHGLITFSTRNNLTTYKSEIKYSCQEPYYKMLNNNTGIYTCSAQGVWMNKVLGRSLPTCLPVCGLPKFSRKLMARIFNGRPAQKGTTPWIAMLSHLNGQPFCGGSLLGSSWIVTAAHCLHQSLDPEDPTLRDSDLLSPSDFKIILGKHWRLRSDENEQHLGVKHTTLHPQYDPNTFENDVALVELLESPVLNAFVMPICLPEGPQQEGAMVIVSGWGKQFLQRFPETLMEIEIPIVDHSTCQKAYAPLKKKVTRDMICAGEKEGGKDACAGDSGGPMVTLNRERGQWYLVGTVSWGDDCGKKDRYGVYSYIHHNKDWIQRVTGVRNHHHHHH
Experiment: cell-based or functional assay
Numbered stars: 1 amine (or outer) side, 2 acyl side, 3 side chain; on linkers, the order of the positions; unused ones are H or OH. Bridge positions count the residues as written; N and C are the ends. Square brackets hold non-standard residues; d marks the D form. Ends that are not written are not given here. X13 = (2S)‑2‑amino‑3‑(1-methylcyclopropyl)propanoic acid, CC1(C[C@H](N[*:1])C(=O)[*:2])CC1; Oic = O=C(O)[C@@H]1C[C@@H]2CCCC[C@@H]2N1; NMeI = CC[C@H](C)[C@H](NC)C(=O)O; tBuAla = CC(C)(C)C[C@H](N)C(=O)O; Pen = CC(C)(S)[C@H](N)C(=O)O; Orn = NCCC[C@H](N)C(=O)O; Ahx = NCCCCCC(=O)O; Sar = CNCC(=O)O
endpoint: human MASP1 IC50 (nM)
Only the number, expressed in nM, is required.

These recorded examples may help you get a feel for the data.
[Orn]ICSRSLPPICI-NH2 (disulfide 3-11; N-terminus assumed; SMILES CC[C@H](C)[C@H](NC(=O)[C@@H]1CSSC[C@H](NC(=O)[C@@H](NC(=O)[C@@H](N)CCCN)[C@@H](C)CC)C(=O)N[C@@H](CO)C(=O)N[C@@H](CCCNC(=N)N)C(=O)N[C@@H](CO)C(=O)N[C@@H](CC(C)C)C(=O)N2CCC[C@H]2C(=O)N2CCC[C@H]2C(=O)N[C@@H]([C@@H](C)CC)C(=O)N1)C(N)=O) [(Orn)-IC+SRSLPPIC+I-NH2]	7.8
[Ahx]ICSRS[tBuAla]PPI[Pen]IP-NH2 (disulfide 3-11; N-terminus assumed; SMILES CC[C@H](C)[C@H](NC(=O)CCCCCN)C(=O)N[C@H]1CSSC(C)(C)[C@@H](C(=O)N[C@H](C(=O)N2CCC[C@H]2C(N)=O)[C@@H](C)CC)NC(=O)[C@H]([C@@H](C)CC)NC(=O)[C@@H]2CCCN2C(=O)[C@@H]2CCCN2C(=O)[C@H](CC(C)(C)C)NC(=O)[C@H](CO)NC(=O)[C@H](CCCNC(=N)N)NC(=O)[C@H](CO)NC1=O) [(Ahx)-IC+SRS-((tBu)A)-PPI-(Pen)+IP-NH2]	9.9
G[NMeI]CSRSLPPICIPD-NH2 (disulfide 3-11; N-terminus assumed; SMILES CC[C@H](C)[C@@H]1NC(=O)[C@@H]2CCCN2C(=O)[C@@H]2CCCN2C(=O)[C@H](CC(C)C)NC(=O)[C@H](CO)NC(=O)[C@H](CCCNC(=N)N)NC(=O)[C@H](CO)NC(=O)[C@@H](NC(=O)[C@H]([C@@H](C)CC)N(C)C(=O)CN)CSSC[C@@H](C(=O)N[C@H](C(=O)N2CCC[C@H]2C(=O)N[C@@H](CC(=O)O)C(N)=O)[C@@H](C)CC)NC1=O) [G-((N-Me)I)-C+SRSLPPIC+IPD-NH2]	11

Now for a further binder.
Task item: Supply reported human MASP1 IC50 belonging to this binder: [Sar]ICSRS[X13]P[Oic]I[Pen]IP-NH2 (disulfide 3-11; N-terminus assumed; SMILES CC[C@H](C)[C@H](NC(=O)CNC)C(=O)N[C@H]1CSSC(C)(C)[C@@H](C(=O)N[C@H](C(=O)N2CCC[C@H]2C(N)=O)[C@@H](C)CC)NC(=O)[C@H]([C@@H](C)CC)NC(=O)[C@@H]2C[C@@H]3CCCC[C@@H]3N2C(=O)[C@@H]2CCCN2C(=O)[C@H](CC2(C)CC2)NC(=O)[C@H](CO)NC(=O)[C@H](CCCNC(=N)N)NC(=O)[C@H](CO)NC1=O) [((N-Me)G)-IC+SRS-((2S)-2-amino-3-(1-methylcyclopropyl)propanoic acid)-P-(Oic)-I-(Pen)+IP-NH2]
Reply: 11
